target: Sulfonylurea receptor 2, Kir6.2 (Homo sapiens, UniProt O60706+Q14654); experiment: Ability to open human urinary bladder Kir6.2 channel containing SUR2B in Ltk cells by FLIPR assay; format: functional, cell-based
Sequence (Q14654 whole entry): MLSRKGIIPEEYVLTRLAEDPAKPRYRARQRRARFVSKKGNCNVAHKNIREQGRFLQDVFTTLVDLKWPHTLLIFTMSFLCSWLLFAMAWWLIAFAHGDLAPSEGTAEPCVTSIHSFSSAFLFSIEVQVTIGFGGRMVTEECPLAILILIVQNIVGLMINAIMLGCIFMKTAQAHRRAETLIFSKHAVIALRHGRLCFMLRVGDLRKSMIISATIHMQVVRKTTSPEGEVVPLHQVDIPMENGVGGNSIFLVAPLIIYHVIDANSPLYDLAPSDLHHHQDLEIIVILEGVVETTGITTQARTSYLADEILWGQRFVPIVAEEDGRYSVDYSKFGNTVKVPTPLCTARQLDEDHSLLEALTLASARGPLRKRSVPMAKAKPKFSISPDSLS
Sequence (O60706 whole entry): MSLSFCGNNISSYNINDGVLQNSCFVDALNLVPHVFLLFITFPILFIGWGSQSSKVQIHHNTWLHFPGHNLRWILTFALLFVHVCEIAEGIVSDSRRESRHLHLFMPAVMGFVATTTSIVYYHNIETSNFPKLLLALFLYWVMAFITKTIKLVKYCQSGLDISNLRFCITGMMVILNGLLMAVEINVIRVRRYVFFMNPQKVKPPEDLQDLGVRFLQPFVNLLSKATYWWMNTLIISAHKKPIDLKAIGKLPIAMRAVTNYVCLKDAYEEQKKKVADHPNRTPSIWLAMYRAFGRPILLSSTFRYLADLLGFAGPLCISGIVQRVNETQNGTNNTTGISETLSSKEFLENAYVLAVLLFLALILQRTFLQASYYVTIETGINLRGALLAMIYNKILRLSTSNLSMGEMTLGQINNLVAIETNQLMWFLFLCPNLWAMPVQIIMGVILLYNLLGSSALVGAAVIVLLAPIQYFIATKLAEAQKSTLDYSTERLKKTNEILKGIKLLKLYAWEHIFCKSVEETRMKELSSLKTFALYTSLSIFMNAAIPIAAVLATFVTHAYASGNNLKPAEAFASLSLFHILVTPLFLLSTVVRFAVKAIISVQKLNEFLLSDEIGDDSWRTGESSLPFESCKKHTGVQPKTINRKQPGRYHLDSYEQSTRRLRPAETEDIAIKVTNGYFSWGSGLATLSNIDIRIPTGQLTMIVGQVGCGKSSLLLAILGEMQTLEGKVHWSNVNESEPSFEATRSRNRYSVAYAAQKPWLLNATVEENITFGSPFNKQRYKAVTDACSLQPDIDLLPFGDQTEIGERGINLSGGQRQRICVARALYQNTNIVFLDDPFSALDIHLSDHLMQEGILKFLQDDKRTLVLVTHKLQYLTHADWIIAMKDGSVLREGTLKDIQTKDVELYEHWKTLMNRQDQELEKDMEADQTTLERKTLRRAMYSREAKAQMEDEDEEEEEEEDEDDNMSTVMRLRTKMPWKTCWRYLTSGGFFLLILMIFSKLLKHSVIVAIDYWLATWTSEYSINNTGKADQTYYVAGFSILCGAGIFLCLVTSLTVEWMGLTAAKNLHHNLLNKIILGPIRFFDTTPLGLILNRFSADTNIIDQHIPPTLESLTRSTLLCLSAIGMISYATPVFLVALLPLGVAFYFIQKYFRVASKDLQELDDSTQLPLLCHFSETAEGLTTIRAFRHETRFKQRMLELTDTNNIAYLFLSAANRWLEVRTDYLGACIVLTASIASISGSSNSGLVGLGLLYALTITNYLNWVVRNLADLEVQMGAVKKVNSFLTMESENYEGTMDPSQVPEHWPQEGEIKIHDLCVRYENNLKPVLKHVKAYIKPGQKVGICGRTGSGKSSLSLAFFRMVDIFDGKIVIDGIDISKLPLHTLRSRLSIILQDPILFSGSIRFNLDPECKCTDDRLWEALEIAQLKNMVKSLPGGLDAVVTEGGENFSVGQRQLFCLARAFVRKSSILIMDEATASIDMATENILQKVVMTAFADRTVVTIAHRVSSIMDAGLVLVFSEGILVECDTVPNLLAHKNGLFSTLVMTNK
measured endpoint: EC50 (nM)
Write the answer as a number in nM, unit excluded.

What value of measured EC50 is listed for CC[C@H]1OCC(O)=C2C1=NC1=C(C(=O)COC1)[C@H]2c1ccc(F)c(Cl)c1 (racemic) ?
457

// repeat for CC[C@H]1OCC(O)=C2C1=NC1=C(C(=O)COC1)[C@H]2c1ccc(F)c(I)c1 (racemic) and report
12000

// repeat for CC[C@H]1OC(O)=C2C1=NC1=C(C(=O)COC1(C)C)[C@H]2c1ccc(F)c(Br)c1 (stereo in doubt; 38a) and report
1580

// repeat for CCC[C@H]1OC(O)=C2C1=NC1=C(C(=O)COC1)[C@H]2c1ccc(C)c(Br)c1 (racemic) and report
398

// repeat for CCC[C@H]1OC(O)=C2C1=NC1=C(C(=O)COC1)[C@H]2c1ccc(Cl)c(Cl)c1 (racemic) and report
603

// repeat for CCC[C@H]1OC(O)=C2C1=NC1=C(C(=O)COC1)[C@H]2c1ccc(Cl)c(Cl)c1 (stereo in doubt; 42a) and report
1320

// repeat for CCC[C@@H]1OC(O)=C2C1=NC1=C(C(=O)COC1)[C@H]2c1ccc(F)c(Br)c1 (racemic) and report
5.13

// repeat for CCC[C@H]1OC(O)=C2C1=NC1=C(C(=O)COC1)[C@H]2c1ccc(F)c(I)c1 (stereo in doubt; 41b) and report
26.9

// repeat for CCCC[C@H]1OC(O)=C2C1=NC1=C(C(=O)COC1)[C@H]2c1ccc(F)c(Br)c1 (stereo in doubt; 29b) and report
851

// repeat for CC[C@H]1OC(O)=C2C1=NC1=C(C(=O)C(C)(C)OC1)[C@H]2c1ccc(F)c(Br)c1 (racemic) and report
282

// repeat for CCC[C@H]1OC(O)=C2C1=NC1=C(C(=O)COC1)[C@H]2c1ccc(Cl)c(Br)c1 (stereo in doubt; 43a) and report
813

// repeat for CC[C@H]1OCC(O)=C2C1=NC1=C(C(=O)COC1)[C@H]2c1ccc(F)c(I)c1 (stereo in doubt; 73a) and report
1290

// repeat for CCCC[C@H]1OC(O)=C2C1=NC1=C(C(=O)COC1)[C@H]2c1ccc(F)c(Br)c1 (stereo in doubt; 29a) and report
5130

// repeat for `O=C1CCCC2=C1[C@H](c1ccc(F)c(Br)c1)C1=C(CCS1(=O)=O)N2` and report
158

* * *

molecular target: Sulfonylurea receptor 2, Kir6.2 (Homo sapiens) (UniProt Q14654+O60706); experiment: Ability to open human urinary bladder Kir6.2 containing SUR2B in Ltk cells by FLIPR assay relative to P1075; format: functional, cell-based
In plain terms, low Efficacy, meaning strictly below 70%, gives Y, and everything else gives N.

# check: Efficacy < 70% for CC[C@@H]1OC(O)=C2C1=NC1=C(C(=O)COC1(C)C)[C@H]2c1ccc(F)c(Br)c1 (relative stereo)
Y

// repeat for CC[C@H]1OC(O)=C2C1=NC1=C(C(=O)CCC1)[C@H]2c1ccc(F)c(Br)c1 (relative stereo) and report
N

// repeat for C[C@H]1OCC(=O)C2=C1N=C1COC(O)=C1[C@@H]2c1ccc(F)c(Br)c1 (relative stereo) and report
N

// repeat for CC1(C)Oc2ccc(C#N)cc2[C@H](N2CCCC2=O)[C@H]1O (single isomer, unassigned) and report
N

// repeat for CC[C@H]1OCC(O)=C2C1=NC1=C(C(=O)COC1)[C@H]2c1ccc(F)c(Br)c1 (stereo in doubt; 71a) and report
Y

// repeat for CCC[C@H]1OC(O)=C2C1=NC1=C(C(=O)COC1)[C@H]2c1ccc(Cl)c(Br)c1 (racemic) and report
N

* * *

Can you tell me Efficacy for the items I'm about to list?
target: Sulfonylurea receptor 2, Kir6.2 (Homo sapiens) (UniProt Q14654+O60706); assay: Activity against pig bladder KATP channel opening assessed as ability to relax spontaneous bladder contraction relative to P1075; format: functional; conditions: Sus scrofa; target entry is the homologue from another species
Write the answer as a number in %, unit excluded.

What value of measured Efficacy is listed for CC[C@H]1OC(O)=C2C1=NC1=C(C(=O)COC1)[C@H]2c1ccc(F)c(Br)c1 (stereo in doubt; 21b) ?
96

// repeat for CCCC[C@H]1OC(O)=C2C1=NC1=C(C(=O)COC1)[C@H]2c1ccc(F)c(Br)c1 (stereo in doubt; 29b) and report
100

// repeat for CC[C@H]1OCC(O)=C2C1=NC1=C(C(=O)COC1)[C@H]2c1ccc(Cl)c(Cl)c1 (stereo in doubt; 74b) and report
92

// repeat for `CCC(C)(C)/N=C(\NC#N)Nc1cccnc1` and report
100

* * *

Can you tell me pEC50 for the items I'm about to list?
molecular target: Sulfonylurea receptor 2, Kir6.2 (Homo sapiens, UniProt O60706+Q14654); assay: Ability to open human urinary bladder Kir6.2 channel containing SUR2B in Ltk cells by FLIPR assay; assay type: functional, cell-based
Remember the convention: pEC50 equals -log10 of concentration in molar.

Record CCC[C@H]1OC(O)=C2C1=NC1=C(C(=O)COC1)[C@H]2c1ccc(C)c(Br)c1 (stereo in doubt; 46b) : what is its pEC50 with Sulfonylurea receptor 2, Kir6.2 (Homo sapiens, UniProt O60706+Q14654)?
6.66

// repeat for CC[C@H]1OCC(O)=C2C1=NC1=C(C(=O)COC1)[C@H]2c1ccc(Br)c(Cl)c1 (stereo in doubt; 76a) and report
5.79

// repeat for CC[C@H]1OC(O)=C2C1=NC1=C(C(=O)COC1)[C@H]2c1ccc(F)c(Br)c1 (stereo in doubt; 21a) and report
5.14

// repeat for CCC[C@H]1OC(O)=C2C1=NC1=C(C(=O)COC1)[C@H]2c1ccc(F)c(I)c1 (racemic) and report
7.12

// repeat for CC[C@H]1OC(O)=C2C1=NC1=C(C(=O)C(C)(C)OC1)[C@H]2c1ccc(F)c(Br)c1 (stereo in doubt; 36b) and report
6.26

// repeat for CCC[C@H]1OC(O)=C2C1=NC1=C(C(=O)COC1)[C@H]2c1ccc(Cl)c(Br)c1 (racemic) and report
6.76

// repeat for O=C1COCC2=C1C(c1ccc(F)c(Br)c1)C1=C(O)OCC1=N2 (stereo in doubt; 6b) and report
7.43

// repeat for CC[C@H]1OCC(O)=C2C1=NC1=C(C(=O)COC1)[C@H]2c1ccc(Cl)c(Br)c1 (stereo in doubt; 75a) and report
6.12

// repeat for CC[C@H]1OCC(O)=C2C1=NC1=C(C(=O)COC1)[C@H]2c1ccc(Cl)c(Cl)c1 (stereo in doubt; 74b) and report
6.77

// repeat for CCC[C@@H]1OC(O)=C2C1=NC1=C(C(=O)COC1)[C@H]2c1ccc(F)c(Br)c1 (stereo in doubt; 22b) and report
8.43

// repeat for CCC[C@H]1OC(O)=C2C1=NC1=C(C(=O)COC1)[C@H]2c1ccc(Cl)c(Cl)c1 (stereo in doubt; 42b) and report
5.70

// repeat for CC[C@H]1OC(O)=C2C1=NC1=C(C(=O)C(C)(C)OC1)[C@H]2c1ccc(F)c(Br)c1 (stereo in doubt; 36a) and report
6.36

// repeat for CC[C@H]1OCC(O)=C2C1=NC1=C(C(=O)COC1)[C@H]2c1ccc(Br)c(Br)c1 (stereo in doubt; 77a) and report
6.51

// repeat for C[C@@H]1OC(=O)C2=C1NC1=C([C@H]2c2ccc(F)c(Br)c2)S(=O)(=O)CCC1 (relative stereo) and report
7.25

// repeat for CC[C@H]1OC(O)=C2C1=NC1=C(C(=O)OC1)[C@H]2c1ccc(F)c(Br)c1 (relative stereo) and report
7.14

// repeat for CC[C@@H]1OCC2=C(C1=O)[C@@H](c1ccc(F)c(Br)c1)C1=C(O)OCC1=N2 (stereo in doubt; 10b) and report
5.86

// repeat for CC[C@@H]1OCC(O)=C2C1=NC1=C(C(=O)COC1)[C@H]2c1ccc(F)c(Br)c1 (racemic) and report
7.85

// repeat for C[C@@H]1OC(=O)C2=C1NC1=C([C@H]2c2ccc(F)c(Br)c2)S(=O)(=O)CC1 (relative stereo) and report
6.87

// repeat for CC1(C)OCC2=C(C1=O)C(c1ccc(F)c(Br)c1)C1=C(O)OCC1=N2 (stereo in doubt; 9b) and report
5.55

// repeat for C[C@@H]1OC(O)=C2C1=NC1=C(C(=O)COC1)[C@H]2c1ccc(F)c(Br)c1 (racemic) and report
8.26

// repeat for CCC[C@H]1OC(O)=C2C1=NC1=C(C(=O)COC1)[C@H]2c1ccc(F)c(Br)c1 (stereo in doubt; 23b) and report
7.56

// repeat for C[C@H]1OC(O)=C2C1=NC1=C(C(=O)COC1)[C@H]2c1ccc(F)c(Br)c1 (stereo in doubt; 18a) and report
7.19

// repeat for CCC1(CC)OCC2=NC3=C(C(=O)COC3)C(c3ccc(F)c(Br)c3)C2=C1O (stereo not given) and report
4.86

// repeat for C[C@@H]1OCC(=O)C2=C1N=C1COC(O)=C1[C@@H]2c1ccc(F)c(Br)c1 (relative stereo) and report
6.99

// repeat for CC[C@H]1OCC(O)=C2C1=NC1=C(C(=O)COC1)[C@H]2c1ccc(Cl)c(Cl)c1 (stereo in doubt; 74a) and report
6.33

// repeat for CC1(C)OCC2=C(C1=O)C(c1ccc(F)c(Br)c1)C1=C(O)OCC1=N2 (single isomer, unassigned; (+)) and report
7.57

// repeat for CC[C@H]1OC(O)=C2C1=NC1=C(C(=O)OCC1)[C@H]2c1ccc(F)c(Br)c1 (relative stereo) and report
5.30
